# TGT: Δ^5 lipoxygenase from rat basophilic leukemia (RBL-1 cells) (Rattus norvegicus)
# Construct: the resulting supernatant fraction was used as the source of Δ^5 -lipoxygenase; endogenous in cells
# Sequence (P12527 whole entry, stated change not applied): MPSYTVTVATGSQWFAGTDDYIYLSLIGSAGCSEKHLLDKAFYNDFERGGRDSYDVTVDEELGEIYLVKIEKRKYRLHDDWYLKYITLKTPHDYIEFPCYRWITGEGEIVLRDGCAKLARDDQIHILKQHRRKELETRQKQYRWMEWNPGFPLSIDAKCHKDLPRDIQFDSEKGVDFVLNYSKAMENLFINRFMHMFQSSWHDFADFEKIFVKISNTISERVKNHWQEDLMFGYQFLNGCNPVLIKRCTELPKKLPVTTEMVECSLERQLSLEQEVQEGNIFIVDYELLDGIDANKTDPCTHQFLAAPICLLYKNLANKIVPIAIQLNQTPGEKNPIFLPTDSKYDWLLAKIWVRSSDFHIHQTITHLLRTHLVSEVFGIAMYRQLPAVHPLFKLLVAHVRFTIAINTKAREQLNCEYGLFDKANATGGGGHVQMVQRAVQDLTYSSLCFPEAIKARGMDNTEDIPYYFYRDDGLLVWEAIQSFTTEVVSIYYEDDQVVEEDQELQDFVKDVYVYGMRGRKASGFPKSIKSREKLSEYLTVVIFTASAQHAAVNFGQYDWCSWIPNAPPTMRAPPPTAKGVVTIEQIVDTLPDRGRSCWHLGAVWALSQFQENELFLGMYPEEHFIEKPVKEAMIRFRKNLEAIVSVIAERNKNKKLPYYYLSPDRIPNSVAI
# PROTOCOL: In vitro test for Δ^5-lipoxygenase inhibitors
# APPLIED_CONDITIONS: RBL-1 supernatant enzyme, 6.7 μM [1-^14 C]arachidonic acid, 10 min preincubation; read-out: IC50 value, Δ^5-lipoxygenase inhibition
REPORTED_METRIC: IC50 (nM)
Quick reminder: number only, in nM, skip the unit.

State the recorded IC50 for this entry: "C[C@H](C(=O)O)c1ccc2cc(OCCCCCCc3cccc(O)c3O)ccc2c1"
12

====

# Tested on: cyclooxygenase (CO) pathway, PGE2 formation in rat peritoneal macrophages
# PROTOCOL: Rat peritoneal macrophage assay, in vitro: PGE2 formation (CO pathway)
# Assay type: cell-based
# APPLIED_CONDITIONS: stimulated with calcium ionophore A 23187 (5×10^-7 M), PGE2 by radioimmunoassay
Sorting guide: entries reporting IC50 beneath 3 µM go in the t pile, the rest go in the f pile.

Does the reported IC50 of the following compound sit strictly below 3 µM? "C[C@H](C(=O)O)c1ccc2cc(OCCCCCCc3cccc(O)c3O)ccc2c1"
t

Does the reported IC50 of the following compound sit strictly below 3 µM? "O=C(O)Cc1ccc2cc(OCCCCCCc3cccc(O)c3O)ccc2c1"
f

Does the reported IC50 of the following compound sit strictly below 3 µM? "O=C(O)c1ccc2cc(OCCCCCCc3cccc(O)c3O)ccc2c1"
f

Does the reported IC50 of the following compound sit strictly below 3 µM? "CCOC(=O)[C@@H](C)c1ccc2cc(OCCCCCCc3cccc(O)c3O)ccc2c1"
f
